Target: CAPN2 (Homo sapiens, UniProt P17655)
Sequence (P17655 20-700 limits assumed): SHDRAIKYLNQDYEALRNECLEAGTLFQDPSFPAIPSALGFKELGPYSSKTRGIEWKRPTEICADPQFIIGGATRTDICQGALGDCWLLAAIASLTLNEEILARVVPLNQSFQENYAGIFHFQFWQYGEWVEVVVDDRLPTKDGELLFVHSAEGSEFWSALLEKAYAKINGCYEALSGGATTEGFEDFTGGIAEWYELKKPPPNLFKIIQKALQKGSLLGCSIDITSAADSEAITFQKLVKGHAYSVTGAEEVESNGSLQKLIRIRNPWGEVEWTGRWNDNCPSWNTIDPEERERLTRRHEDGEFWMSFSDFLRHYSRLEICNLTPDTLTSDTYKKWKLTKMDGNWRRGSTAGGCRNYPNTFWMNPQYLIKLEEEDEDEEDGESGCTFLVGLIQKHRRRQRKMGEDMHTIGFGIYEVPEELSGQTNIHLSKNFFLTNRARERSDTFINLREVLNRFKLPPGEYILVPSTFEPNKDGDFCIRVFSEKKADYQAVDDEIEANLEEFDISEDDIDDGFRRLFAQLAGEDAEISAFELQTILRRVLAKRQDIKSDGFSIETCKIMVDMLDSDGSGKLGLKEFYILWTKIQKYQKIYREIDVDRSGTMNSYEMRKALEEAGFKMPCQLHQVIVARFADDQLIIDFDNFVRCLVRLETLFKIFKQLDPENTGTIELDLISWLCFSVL
Sequence (P04632 whole entry partner): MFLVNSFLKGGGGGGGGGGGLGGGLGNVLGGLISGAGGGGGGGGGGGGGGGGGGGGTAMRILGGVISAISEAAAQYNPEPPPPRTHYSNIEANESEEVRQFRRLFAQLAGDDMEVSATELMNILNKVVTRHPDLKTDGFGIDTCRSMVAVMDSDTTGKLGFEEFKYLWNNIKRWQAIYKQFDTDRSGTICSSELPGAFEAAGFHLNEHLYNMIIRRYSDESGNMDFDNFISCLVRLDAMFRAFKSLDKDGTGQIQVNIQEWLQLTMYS
Experiment: Activity based probe (ABP) off-rate assay of CAPN2 inhibitors, SDS-PAGE readout
Type: binding
Details: t1/2=0.693/k from first order decay fit; complex diluted ten-fold into 10 uM ABP; time points 0-24 hours
Description: FIG. 2: Dissociation of Compound 10 from calpain 2 (CAPN2). Complexes of Compound 10 with CAPN2 were generated, followed by dilution into an excess of Compound 29 (a probe for unbound CAPN2). Samples were taken at the time points (lanes 1-6 for 0, 1, 2, 4, 7 and 24 hr respectively) and analyzed by gel electrophoresis to determine the amount of Compound 29 probe incorporation. […] The dissociation rate and half-life for the Compound 10-CAPN2 complex was then calculated. […]
Readout Kind: Half-life of Compound-CAPN2 Complex (h)
Record the value in h, omitting the unit from your answer.

Worked examples follow.
Cn1cc(C(=O)NC(Cc2ccccc2)C(=O)C(N)=O)c(-c2cccc(F)c2)n1 (centres unmarked)    0.633
NC(=O)C(=O)C(Cc1ccccc1)NC(=O)c1cn(C(F)F)nc1-c1ccccc1 (centres unmarked)    2.1
O=C(NC1CC1)C(=O)C(Cc1ccccc1)NC(=O)c1nsnc1-c1ccccc1 (centres unmarked)    0.383
NC(=O)C(=O)C(Cc1ccccc1)NC(=O)c1nsnc1-c1ccccc1 (centres unmarked)    6.6
CCN(CC)Cc1ccc(/C=C/c2ccccc2C(=O)NC(Cc2ccccc2)C(=O)C(N)=O)cc1 (centres unmarked)    0.9

Specify measured Half-life of Compound-CAPN2 Complex for NC(=O)C(=O)[C@H](Cc1ccccc1)NC(=O)c1cnoc1-c1ccccc1 . 1.6

Specify measured Half-life of Compound-CAPN2 Complex for O=CC(Cc1ccccc1)NC(=O)c1nsnc1-c1ccccc1 (centres unmarked) . 1.05

Specify measured Half-life of Compound-CAPN2 Complex for NC(=O)C(=O)C(Cc1ccccc1)NC(=O)c1nsnc1-c1ccccc1F (centres unmarked) . 5.5
